B1: library; numbered along this chain (parent)
chain: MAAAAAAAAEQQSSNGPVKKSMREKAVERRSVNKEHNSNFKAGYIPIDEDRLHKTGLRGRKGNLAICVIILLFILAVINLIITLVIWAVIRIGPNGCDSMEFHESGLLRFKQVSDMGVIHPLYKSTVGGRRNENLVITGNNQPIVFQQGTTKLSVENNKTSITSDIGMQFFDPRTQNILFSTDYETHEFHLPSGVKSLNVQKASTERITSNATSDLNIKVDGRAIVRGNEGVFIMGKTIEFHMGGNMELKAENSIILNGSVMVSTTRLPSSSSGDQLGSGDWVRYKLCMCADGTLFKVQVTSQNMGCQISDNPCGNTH

Variants of: B1
Test description: SGCB cell-surface expression functional score (HA stain, bin4 vs bin1, normalised to synonymous) (log10 ratio); higher = more cell-surface SGCB (functional)
Observable: SGCB cell-surface expression functional score (log10)

| Variant identifier | Numeric value |
| --- | --- |
| A76R | -0.35 |
| R60E | 0.4 |
| I144Y | -1.1 |
| Y123K | -0.02 |
| P46L | -0.2 |
| P46E | 0.1 |
| P269N | 0.54 |
| G236P | -1.06 |
| V127C | 0.53 |
| T317L | -0.33 |
| G306W | -1.81 |
| D115V | -0.75 |
| S193W | -1.15 |
| G167N | -1.11 |
| A9N | -0.39 |
| D275R | -0.53 |
| S14K | 0.31 |
| F102V | -1.57 |
| K250M | 0.98 |
| T266R | 0.23 |
| N211F | -0.28 |
| N63W | 0.22 |
